- Experiment notes: Example 5: degradation over time of black currant anthocyanosides at 37° C., pH 7.0, with/without GSH (HPLC)
- Format: physicochemical
- Reported conditions: GSH protected sample (20 mg), pH 7.0, 37° C., 0:45 h
Assay metric: Peak Area
Could you keep your reply to the number by itself?

Given the entry OC[C@H]1O[C@@H](Oc2cc3c(O)cc(O)cc3[o+]c2-c2ccc(O)c(O)c2)[C@H](O)[C@@H](O)[C@@H]1O [Cn-3O-Glc, Cyanidin 3-o-glucoside] , report its measured Peak Area.
418.6

Entry C[C@@H]1O[C@@H](OC[C@H]2O[C@@H](Oc3cc4c(O)cc(O)cc4[o+]c3-c3cc(O)c(O)c(O)c3)[C@H](O)[C@@H](O)[C@@H]2O)[C@H](O)[C@H](O)[C@H]1O [Dp-3-O-Rut, Delphinidin-3-O-rutinoside] has what Peak Area?
4275.7

Data request, read-out Peak Area, for C[C@@H]1O[C@@H](OC[C@H]2O[C@@H](Oc3cc4c(O)cc(O)cc4[o+]c3-c3ccc(O)c(O)c3)[C@H](O)[C@@H](O)[C@@H]2O)[C@H](O)[C@H](O)[C@H]1O [Cn-3-O-Rut, Cyanidin-3-O-rutinoside]
2964.3

Tell me the measured Peak Area of OC[C@H]1O[C@@H](Oc2cc3c(O)cc(O)cc3[o+]c2-c2cc(O)c(O)c(O)c2)[C@H](O)[C@@H](O)[C@@H]1O [Dp-3O-Glc, Delphinidin 3-o-glucoside] , please.
1209.3

Where do the numbers come from? From patent US8623429B2.
